ASSAYED TARGET: androgen receptor (AR) (Homo sapiens)
Sequence (P10275 1-920): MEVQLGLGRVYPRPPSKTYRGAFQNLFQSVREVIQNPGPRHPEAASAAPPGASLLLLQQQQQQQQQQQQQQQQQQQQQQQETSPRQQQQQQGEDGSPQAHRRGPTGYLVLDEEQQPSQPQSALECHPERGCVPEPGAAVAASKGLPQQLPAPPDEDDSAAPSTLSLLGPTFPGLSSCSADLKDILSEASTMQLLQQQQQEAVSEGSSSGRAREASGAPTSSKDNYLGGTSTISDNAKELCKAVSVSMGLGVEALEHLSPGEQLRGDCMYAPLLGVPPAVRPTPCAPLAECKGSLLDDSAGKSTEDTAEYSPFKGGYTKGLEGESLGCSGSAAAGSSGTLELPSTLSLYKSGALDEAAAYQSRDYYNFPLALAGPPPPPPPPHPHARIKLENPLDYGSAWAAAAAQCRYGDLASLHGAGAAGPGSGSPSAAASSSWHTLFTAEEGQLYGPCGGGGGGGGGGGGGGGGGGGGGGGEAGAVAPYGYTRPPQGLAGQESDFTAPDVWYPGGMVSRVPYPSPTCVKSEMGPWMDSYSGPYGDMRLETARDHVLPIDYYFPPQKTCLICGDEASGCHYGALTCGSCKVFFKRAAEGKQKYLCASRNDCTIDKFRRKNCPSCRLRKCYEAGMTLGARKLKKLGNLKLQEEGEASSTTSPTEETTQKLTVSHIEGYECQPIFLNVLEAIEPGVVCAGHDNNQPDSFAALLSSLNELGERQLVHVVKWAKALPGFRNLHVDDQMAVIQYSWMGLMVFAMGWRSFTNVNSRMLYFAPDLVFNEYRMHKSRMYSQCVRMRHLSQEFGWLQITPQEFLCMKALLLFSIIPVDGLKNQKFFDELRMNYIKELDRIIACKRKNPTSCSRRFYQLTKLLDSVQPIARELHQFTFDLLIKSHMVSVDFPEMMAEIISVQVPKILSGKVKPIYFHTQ
METHOD SUMMARY: Eurofins DiscoverX SAFETYscan off-target panel
METRIC NAME: IC50 (µM)
Report only the number, with the unit µM understood.

Consider the compound shown here: CC(=O)c1ccc2c(c1)C1C=CCC1C(c1cc3c(cc1Br)OCO3)N2 (racemic) [LNS8812] What is its recorded IC50?
4.8

* * *

ASSAYED TARGET: ADRA2A (Homo sapiens)
Sequence (P08913 whole entry): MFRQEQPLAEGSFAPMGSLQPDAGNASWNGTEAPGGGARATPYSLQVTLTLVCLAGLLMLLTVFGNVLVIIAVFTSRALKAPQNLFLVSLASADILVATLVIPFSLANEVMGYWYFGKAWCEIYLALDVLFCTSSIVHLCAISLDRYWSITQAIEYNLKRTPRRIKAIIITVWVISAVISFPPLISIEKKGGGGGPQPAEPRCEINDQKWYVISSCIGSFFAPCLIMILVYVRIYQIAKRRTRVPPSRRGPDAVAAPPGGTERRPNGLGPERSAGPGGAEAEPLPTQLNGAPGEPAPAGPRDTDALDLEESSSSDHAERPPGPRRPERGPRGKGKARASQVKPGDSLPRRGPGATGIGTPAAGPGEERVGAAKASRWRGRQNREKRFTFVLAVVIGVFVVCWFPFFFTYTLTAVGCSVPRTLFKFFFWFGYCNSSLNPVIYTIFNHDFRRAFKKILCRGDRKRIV
METHOD SUMMARY: Eurofins DiscoverX SAFETYscan off-target panel
METRIC NAME: IC50

I would be grateful if you could share the reported IC50 for CC(=O)c1ccc2c(c1)C1C=CCC1C(c1cc3c(cc1Br)OCO3)N2 (racemic) .
2 µM

* * *

ASSAYED TARGET: OPRD1 (Homo sapiens, UniProt P41143)
Sequence (P41143 whole entry): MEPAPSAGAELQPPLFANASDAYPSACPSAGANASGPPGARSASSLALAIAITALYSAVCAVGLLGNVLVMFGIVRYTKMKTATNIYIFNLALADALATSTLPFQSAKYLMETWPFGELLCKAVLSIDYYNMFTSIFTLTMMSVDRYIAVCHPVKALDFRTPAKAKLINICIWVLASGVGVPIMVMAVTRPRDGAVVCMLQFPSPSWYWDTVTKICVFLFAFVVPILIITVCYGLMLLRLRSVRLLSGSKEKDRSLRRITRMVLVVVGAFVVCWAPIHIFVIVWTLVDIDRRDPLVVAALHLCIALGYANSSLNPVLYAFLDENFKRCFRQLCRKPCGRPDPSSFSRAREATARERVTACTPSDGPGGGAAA
METHOD SUMMARY: Eurofins DiscoverX SAFETYscan off-target panel
METRIC NAME: EC50 (nM)
Numbers only; they are read as nM.

Record request: EC50 value, item CC(=O)c1ccc2c(c1)[C@@H]1C=CC[C@@H]1[C@H](c1cc3c(cc1Br)OCO3)N2 (racemic) [LNS8801]
870

* * *

ASSAYED TARGET: HTR1A (Homo sapiens)
Sequence (P08908 1-422): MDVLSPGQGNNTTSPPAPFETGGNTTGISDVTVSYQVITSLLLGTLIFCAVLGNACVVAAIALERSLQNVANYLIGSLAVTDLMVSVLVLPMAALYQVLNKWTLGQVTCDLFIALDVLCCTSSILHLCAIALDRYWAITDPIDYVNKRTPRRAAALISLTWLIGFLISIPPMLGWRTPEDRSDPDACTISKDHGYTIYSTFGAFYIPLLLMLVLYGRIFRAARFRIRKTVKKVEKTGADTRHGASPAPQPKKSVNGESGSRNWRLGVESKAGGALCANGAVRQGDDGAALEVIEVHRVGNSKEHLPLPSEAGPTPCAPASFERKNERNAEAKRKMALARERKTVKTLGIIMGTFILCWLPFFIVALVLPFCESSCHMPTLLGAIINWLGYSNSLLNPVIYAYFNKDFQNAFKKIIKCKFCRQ
METHOD SUMMARY: Eurofins DiscoverX SAFETYscan off-target panel
METRIC NAME: pIC50
Quick note: pIC50 means taking -log10 of the concentration in moles per liter.

Quick one: pIC50 for CC(=O)c1ccc2c(c1)C1C=CCC1C(c1cc3c(cc1Br)OCO3)N2 (racemic) ?
5.70

* * *

ASSAYED TARGET: HTR2A (Homo sapiens, UniProt P28223)
Sequence (P28223 whole entry): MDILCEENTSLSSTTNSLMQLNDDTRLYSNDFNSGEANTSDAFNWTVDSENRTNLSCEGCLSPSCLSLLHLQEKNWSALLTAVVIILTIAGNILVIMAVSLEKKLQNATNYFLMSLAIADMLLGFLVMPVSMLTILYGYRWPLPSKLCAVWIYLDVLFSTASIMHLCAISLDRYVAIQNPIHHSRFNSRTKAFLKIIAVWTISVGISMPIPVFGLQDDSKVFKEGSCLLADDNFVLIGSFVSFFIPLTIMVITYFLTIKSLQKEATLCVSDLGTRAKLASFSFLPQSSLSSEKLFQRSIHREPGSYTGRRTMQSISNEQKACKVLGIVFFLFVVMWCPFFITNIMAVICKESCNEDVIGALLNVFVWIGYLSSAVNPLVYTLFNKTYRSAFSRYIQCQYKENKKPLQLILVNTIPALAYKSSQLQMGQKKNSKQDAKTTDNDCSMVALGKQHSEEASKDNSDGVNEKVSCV
METHOD SUMMARY: Eurofins DiscoverX SAFETYscan off-target panel
Format: cell-based
METRIC NAME: IC50 (µM)
API: value field is a number in µM; no unit string.

IC50 for CC(=O)c1ccc2c(c1)[C@@H]1C=CC[C@@H]1[C@H](c1cc3c(cc1Br)OCO3)N2 (racemic) ?
8.2

* * *

ASSAYED TARGET: OPRM1 (Homo sapiens, UniProt P35372)
Sequence (P35372 whole entry): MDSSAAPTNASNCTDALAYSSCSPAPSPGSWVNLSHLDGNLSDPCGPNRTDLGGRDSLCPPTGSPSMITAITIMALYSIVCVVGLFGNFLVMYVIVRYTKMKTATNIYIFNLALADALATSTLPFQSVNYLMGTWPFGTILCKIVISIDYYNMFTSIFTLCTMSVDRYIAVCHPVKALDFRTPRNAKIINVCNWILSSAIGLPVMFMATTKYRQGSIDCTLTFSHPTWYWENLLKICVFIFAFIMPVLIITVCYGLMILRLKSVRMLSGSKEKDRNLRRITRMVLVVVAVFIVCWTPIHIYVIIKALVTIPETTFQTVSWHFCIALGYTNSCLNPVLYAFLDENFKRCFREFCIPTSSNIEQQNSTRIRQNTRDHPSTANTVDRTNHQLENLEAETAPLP
METHOD SUMMARY: Eurofins DiscoverX SAFETYscan off-target panel
METRIC NAME: pIC50
Scale: pIC50 equals -log10([C]), with [C] in mol/L.

Notebook entry, OPRM1 (Homo sapiens, UniProt P35372) assay: pIC50 of CC(=O)c1ccc2c(c1)[C@@H]1C=CC[C@@H]1[C@H](c1cc3c(cc1Br)OCO3)N2 (racemic) [LNS8801] = ?
5.46
